test: label from the status in PepcDB records

Biosequence: MSVAAGGPAGAAIPESRLMALGIIGGLGGIYASTVNPVIGPVFASLGAVCAIIWGADAIRRVASYGLGTGVPSIGYMSVSIGIVGVVAGLASVFTLPALAAPVVGLILAMILGVVVAVLGKKIVKMKIPILEKCTAEISGAAALSVLGFSAAIAGSYTMQAVLTSVIATGFIGLLFILNTMAIQHPFNACLGPNENQTRTLKLAASTGFISMAIAGLLGIGLNPGWWLVSLVGALCWVVAFKSFVSASFEEAASVKWSGLWPKEEEQ
protein production: failed
//
Biosequence: MQICDSYNQKNSLFNAMNRFIGAVNNMDQTVMVPSLLRDVPLDQEEEKEVTSFQDGDMYGSYVLLKSIRNDIEWGVLQAEERRKEKHGVTTTSLEVSRIEPNDKDLEKLFHYHLSGLHTVLAKLTRKANTLTNRYKQEIGIGGCGN
protein production: failed
